Data origin: patent US20220204497A1

tested on: A549 cells; assay: Cell viability by MTT method in A549 cells; assay type: cell-based; set-up: concentration or dose not given beside the values; details: 72 hours treatment
READOUT NAME: Cell Viability (% inhibition) (A549) (%)
Answers are plain numbers, in %.

compound=COc1ccc(-c2csc(NC(=O)[C@H](Cc3c[nH]c4ccccc34)NS(=O)(=O)c3ccc(Br)cc3)n2)c(OC)c1 reported_value=9.05

Hi, could you look up Cell Viability (% inhibition) (A549) for each item in my list?
1. CC(C)C[C@H](NS(=O)(=O)c1cccc([N+](=O)[O-])c1)C(=O)Nc1ccc(N2CCOCC2)cc1
2. Cc1ccc(S(=O)(=O)N[C@@H](Cc2c[nH]c3ccccc23)C(=O)OCc2ccccc2)cc1
3. CC(C)C[C@H](NS(=O)(=O)c1ccc([N+](=O)[O-])cc1)C(=O)Nc1ccc(N2CCOCC2)cc1
4. CC(C)C[C@H](NS(=O)(=O)c1cccs1)C(=O)Nc1ccc(N2CCOCC2)cc1

RESULT:
[18.38, 94.24, 33.24, 9.46]

* * *

system: A549 cells; assay: Cell viability by MTT method in A549 cells; type: cell-based; parameters: concentration or dose not given beside the values; details: 72 hours treatment
READOUT NAME: Cell Viability (% inhibition) (A549) (%)
Numbers only, in %.

In the examples that follow, each entry is paired with its recorded Cell Viability (% inhibition) (A549).
compound=COc1ccc(CCNC(=O)[C@H](Cc2c[nH]c3ccccc23)NS(=O)(=O)c2ccc(C)cc2)cc1 assay_system="A549 cells" output_unit=% reported_value=65.64
compound=CC(C)C[C@H](NS(=O)(=O)c1ccc(C(=O)O)cc1)C(=O)N1CCOCCOCCOCC1 assay_system="A549 cells" output_unit=% reported_value=64.40
compound="CC(C)C[C@H](NC(=O)CCS(=O)(=O)c1ccccc1)C(=O)OCc1ccccc1 [Compound 28]" assay_system="A549 cells" output_unit=% reported_value=12.43

Lab note: next compound to report on.
QUERY: # Cell Viability (% inhibition) (A549) lookup, item COc1ccc(-c2csc(NC(=O)[C@H](Cc3c[nH]c4ccc(C)cc34)NS(=O)(=O)c3ccc(Br)cc3)n2)cc1
RESULT: 90.98

* * *

system: A549 cells; test: Cell viability by MTT method in A549 cells; format: cell-based; design: concentration or dose not given beside the values; details: 72 hours treatment
Mark 0 (no) for Cell Viability (% inhibition) (A549) values under 70%, and 1 (yes) for everything at or above.

molecule=Cc1ccc(S(=O)(=O)N[C@@H](Cc2ccccc2)C(=O)N2CCOCC2)cc1 category="0 (no)"
molecule=O=C(NCCc1ccccc1)[C@H](Cc1c[nH]c2ccccc12)NS(=O)(=O)c1ccc(Br)cc1 category="1 (yes)"
molecule=N#Cc1ccc(S(=O)(=O)N[C@@H](Cc2c[nH]c3ccccc23)C(=O)Nc2ccc(N3CCOCC3)cc2)cc1 category="0 (no)"
molecule=Cc1ccc(S(=O)(=O)N[C@@H](Cc2c[nH]c3ccccc23)C(=O)Nc2ccc(N3C[C@@H](C)O[C@@H](C)C3)nc2)cc1 category="1 (yes)"

QUERY: # bool: Cell Viability (% inhibition) (A549) of Cc1ccc(S(=O)(=O)N[C@@H](Cc2c[nH]c3ccccc23)C(=O)Nc2nc(C)cs2)cc1 [Compound 111] >= 70%
RESULT: 0 (no)

QUERY: And for O=C(NCCc1ccc(F)cc1)[C@H](Cc1c[nH]c2ccccc12)NS(=O)(=O)c1ccc(Br)cc1 ?
RESULT: 1 (yes)

QUERY: And for COC[C@H](C)Oc1ccc(-c2csc(NC(=O)[C@H](CC(C)C)NS(=O)(=O)c3ccc(C)cc3)n2)cc1 ?
RESULT: 1 (yes)

QUERY: And for CC(C)C[C@H](NS(=O)(=O)c1ccccc1)C(=O)Nc1ccc(N2CCOCC2)cc1 ?
RESULT: 0 (no)

QUERY: And for CC(C)C[C@H](NC(=O)c1ccc(NC(=O)OC(C)(C)C)cc1)C(=O)OCc1ccccc1 ?
RESULT: 0 (no)

QUERY: And for N[C@@H](Cc1c[nH]c2ccccc12)C(=O)Nc1ccc(N2CCOCC2)cc1 ?
RESULT: 0 (no)

QUERY: And for CC(=O)N1CCN(c2ccc(NC(=O)[C@H](Cc3c[nH]c4ccccc34)NS(=O)(=O)c3ccc(C)cc3)cc2)CC1 ?
RESULT: 0 (no)

QUERY: And for Cc1ccc(S(=O)(=O)N[C@@H](Cc2cc3ccccc3[nH]2)C(=O)Nc2ccc(N3CCOCC3)cc2)cc1 ?
RESULT: 0 (no)

QUERY: And for Cc1ccc(-c2csc(NC(=O)[C@H](CC(C)C)N(C)S(=O)(=O)c3ccccc3)n2)cc1 ?
RESULT: 0 (no)

QUERY: And for Cc1ccc(S(=O)(=O)N[C@@H](Cc2c[nH]c3ccccc23)C(=O)NCCc2ccc(Br)cc2)cc1 ?
RESULT: 1 (yes)

* * *

biological target: AIMP2-DX2 (Homo sapiens); experiment: DX2-nanoluciferase assay (DX2 expression change) in transfected A549 cells; details: A549, 4 h, read-out: DX-Nanoluciferase activity (40 μM), 40 μM, 4 hours treatment, A549 cells transfected with nanoluciferase-DX2; inhibitory effect on AIMP2-DX2 expression
Mark false (0) for inhibition at 40 µM values under 50%, and true (1) for everything at or above.

Please review the following examples before continuing.
compound=Cc1ccc(S(=O)(=O)N[C@@H](CC(C)C)C(=O)Nc2cc(N3CCC(C)CC3)ncn2)cc1 assay_system="AIMP2-DX2 (Homo sapiens)" category="false (0)"
compound=Cc1ccc(S(=O)(=O)N[C@@H](Cc2cn(S(=O)(=O)c3ccc(C)cc3)cn2)C(=O)Nc2ccc(N3CCOCC3)cc2)cc1 assay_system="AIMP2-DX2 (Homo sapiens)" category="true (1)"

QUERY: # bool: inhibition at 40 µM of COc1ccc(-c2csc(NC(=O)[C@H](CC(C)C)NS(=O)(=O)c3ccc(C)cc3)n2)cc1 >= 50%
RESULT: true (1)

QUERY: And for COc1ccc(-c2cc(NC(=O)[C@H](CC(C)C)NS(=O)(=O)c3ccc(C)cc3)no2)cc1 ?
RESULT: true (1)

QUERY: And for CC(C)C[C@H](NC(=O)c1ccc2c(c1)OCO2)C(=O)Nc1ccc(N2CCOCC2)cc1 ?
RESULT: false (0)

QUERY: And for CCCCCCCCCC(=O)NNC(=O)[C@H](Cc1c[nH]c2ccccc12)NS(=O)(=O)c1ccc(Br)cc1 ?
RESULT: false (0)

* * *

target: UniProt:Q13155; experiment: DX2-nanoluciferase assay (DX2 expression change) in transfected A549 cells; settings: A549, 4 h, read-out: DX-Nanoluciferase activity (40 μM), 40 μM, 4 hours treatment, A549 cells transfected with nanoluciferase-DX2; inhibitory effect on AIMP2-DX2 expression
Can you tell me inhibition at 40 µM for the items I'm about to list?

compound="COc1ccc(CCNC(=O)[C@H](Cc2c[nH]c3ccccc23)NS(=O)(=O)c2ccc(Br)cc2)cc1 [Compound 199]" reported_value=30.6%
compound="Cc1ccc(S(=O)(=O)N[C@@H](Cc2c[nH]c3ccccc23)C(=O)Nc2nc(C)cs2)cc1 [Compound 83]" reported_value=17.4%

Lab note: next compound to report on.
QUERY: What inhibition at 40 µM appears in the records for this compound with UniProt:Q13155? CC(C)C[C@H](NS(=O)(=O)c1ccc(C(C)C)cc1)C(=O)Nc1ccc(N2CCOCC2)cc1 [Compound 32]
RESULT: 25.8%

* * *

target: AIMP2-DX2 (Homo sapiens, UniProt Q13155); experiment: DX2-nanoluciferase assay (DX2 expression change) in transfected A549 cells; conditions: A549, 4 h, read-out: DX-Nanoluciferase activity (40 μM), 40 μM, 4 hours treatment, A549 cells transfected with nanoluciferase-DX2; inhibitory effect on AIMP2-DX2 expression
Sequence (Q13155 1-251 isoform Q13155-2): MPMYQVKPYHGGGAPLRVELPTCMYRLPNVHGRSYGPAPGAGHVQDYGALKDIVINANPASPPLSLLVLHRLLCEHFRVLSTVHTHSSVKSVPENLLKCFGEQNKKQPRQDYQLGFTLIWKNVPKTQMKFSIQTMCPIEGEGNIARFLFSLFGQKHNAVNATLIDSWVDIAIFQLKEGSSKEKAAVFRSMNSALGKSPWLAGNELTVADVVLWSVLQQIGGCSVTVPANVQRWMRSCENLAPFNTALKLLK
Response field class: string, computed from recorded inhibition at 40 µM by ranges low end = under 40%, middle = from 40% up to 50%, high end = 50% and over

Please review the following examples before continuing.
compound="CCOC(=O)C(Cc1c[nH]c2ccc(C(=O)O)cc12)NS(=O)(=O)c1ccc(C)cc1 (stereo not drawn) [Compound 73]" assay_system="AIMP2-DX2 (Homo sapiens, UniProt Q13155)" category=middle
compound="O=C(NCCCc1ccccc1)[C@H](Cc1c[nH]c2ccccc12)NS(=O)(=O)c1ccc(Br)cc1 [Compound 200]" assay_system="AIMP2-DX2 (Homo sapiens, UniProt Q13155)" category=middle
compound="Cc1ccc(S(=O)(=O)N[C@@H](CC(C)C)C(=O)N2CCOCCOCCOCC2)cc1 [Compound 3]" assay_system="AIMP2-DX2 (Homo sapiens, UniProt Q13155)" category="high end"
compound="Cc1ccc(S(=O)(=O)N[C@@H](Cc2c[nH]c3ccccc23)C(=O)Nc2ccc(N3C[C@@H](C)O[C@@H](C)C3)nc2)cc1 [Compound 75]" assay_system="AIMP2-DX2 (Homo sapiens, UniProt Q13155)" category="high end"
compound="Cc1ccc(S(=O)(=O)N[C@@H](Cc2c[nH]c3ccccc23)C(=O)N2CCOCC2)cc1 [Compound 70]" assay_system="AIMP2-DX2 (Homo sapiens, UniProt Q13155)" category="high end"

QUERY: Which inhibition at 40 µM category applies to CC[C@H](C)[C@H](NS(=O)(=O)c1ccc(C)cc1)C(=O)Nc1ccc(N2CCOCC2)cc1 [Compound 43] here?
RESULT: middle

QUERY: And for COc1ccc(-c2cc(NC(=O)[C@H](CC(C)C)NS(=O)(=O)c3ccc(C)cc3)on2)cc1 [Compound 89] ?
RESULT: middle

QUERY: And for Cc1ccc(S(=O)(=O)N[C@@H](CC(C)C)C(=O)Nc2ccc(N3CCC(C)CC3)nc2)cc1 [Compound 9] ?
RESULT: low end

QUERY: And for CC(C)C[C@H](NS(=O)(=O)c1ccc(O)cc1)C(=O)N1CCOCCOCCOCC1 [Compound 35] ?
RESULT: middle

QUERY: And for Cc1ccc(S(=O)(=O)N[C@@H](CC(C)C)C(=O)Nc2nc(-c3ccc(F)cc3Br)cs2)cc1 [Compound 92] ?
RESULT: low end

QUERY: And for Cc1ccc(S(=O)(=O)N[C@@H](Cc2c[nH]c3ccccc23)C(=O)Nc2ncc(C)s2)cc1 [Compound 112] ?
RESULT: high end

QUERY: And for CC(C)C[C@H](NS(=O)(=O)c1cccc([N+](=O)[O-])c1)C(=O)N1CCOCC1 [Compound 19] ?
RESULT: low end

QUERY: And for Cc1cc(C)cc(S(=O)(=O)N[C@@H](Cc2c[nH]c3ccccc23)C(=O)Nc2ccc(N3CCOCC3)cc2)c1 [Compound 66] ?
RESULT: middle

QUERY: And for Cc1cnc(NC(=O)[C@H](Cc2c[nH]c3ccccc23)NS(=O)(=O)c2ccc(Br)cc2)s1 [Compound 110] ?
RESULT: middle

QUERY: And for CC(C)C[C@H](NS(=O)(=O)c1cccc(N)c1)C(=O)N1CCOCC1 [Compound 20] ?
RESULT: low end

QUERY: And for Cc1ccc(S(=O)(=O)N[C@H](C(=O)N2CCOCC2)C(C)C)cc1 [Compound 40] ?
RESULT: low end

QUERY: And for CC(C)C[C@H](NC(=O)c1ccc(NC(=O)OC(C)(C)C)cc1)C(=O)OCc1ccccc1 [Compound 53] ?
RESULT: middle
